TEST TARGET: GLP-1R (Homo sapiens, UniProt P43220)
Sequence (P43220 24-463): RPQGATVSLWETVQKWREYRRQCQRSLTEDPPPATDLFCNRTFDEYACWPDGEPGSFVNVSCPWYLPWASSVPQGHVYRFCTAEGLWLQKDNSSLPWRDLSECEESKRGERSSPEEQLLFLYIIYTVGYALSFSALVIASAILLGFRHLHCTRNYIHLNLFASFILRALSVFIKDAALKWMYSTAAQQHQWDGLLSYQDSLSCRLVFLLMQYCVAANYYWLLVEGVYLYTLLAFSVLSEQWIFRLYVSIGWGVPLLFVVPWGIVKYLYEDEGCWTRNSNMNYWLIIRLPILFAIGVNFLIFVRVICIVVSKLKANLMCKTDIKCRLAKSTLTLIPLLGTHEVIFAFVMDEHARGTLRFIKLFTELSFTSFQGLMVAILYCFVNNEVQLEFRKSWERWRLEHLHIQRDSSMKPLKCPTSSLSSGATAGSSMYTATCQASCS
ASSAY EXPLANATION: GLP-1R agonist cAMP stimulation assay (HTRF cAMP)
TEST SETTINGS: HEK293 cell line expressing GLP-1 target; HTRF cAMP agonist mode, 30 min at RT
Label Y when EC50 is strictly below 0.6 nM; at or above that, label N.

Check out these entries, answers already filled in.
| COMPOUND | TEST TARGET | GROUP LABEL |
| --- | --- | --- |
| Cc1n[nH]c2c(Cl)cc(C(=O)Nc3ccc4c(c3)nc(Cc3cc(F)c(-c5cccc6c5OC(C)(c5ccc(Cl)cc5F)O6)cc3F)n4CC3CCO3)cc12 (centres unmarked) [Compound 320] | GLP-1R (Homo sapiens, UniProt P43220) | N |
| Cc1cc2c(C#N)ccc(COc3cccc(C4=CCN(Cc5nc6cc(NC(=O)c7ccc8[nH]nc(C)c8c7)ccc6n5C[C@@H]5CCO5)CC4)n3)c2o1 [Compound 358] | GLP-1R (Homo sapiens, UniProt P43220) | N |
| O=C(NCC(=O)N1CC[C@H](O)C1)c1ccc2c(c1)nc(CN1CCC(c3cccc(OCc4ccc(Cl)cc4F)n3)CC1)n2C[C@@H]1CCO1 [Compound 70] | GLP-1R (Homo sapiens, UniProt P43220) | N |
| O=C(Nc1cc(F)c2c(c1)C1(CC1)C(=O)N2)c1ccc2nc(CN3CC=C(c4cccc(OCc5ccc(Cl)cc5F)n4)CC3)n(C[C@@H]3CCO3)c2c1 [Compound 271] | GLP-1R (Homo sapiens, UniProt P43220) | N |
| O=C(Nc1ccc2[nH]nc(Cl)c2c1)c1ccc2nc(CN3CC=C(c4cccc(OCc5ccc(Cl)cc5F)n4)CC3)n(CC3CCO3)c2c1 (centres unmarked) [Compound 269] | GLP-1R (Homo sapiens, UniProt P43220) | N |

API: the following record is the query input.
Q: Strictly below 0.6 nM in EC50? Cc1n[nH]c2c(C(F)F)cc(NC(=O)c3ccc4c(c3)nc(CN3CC=C(c5cccc(OCc6ccc(Cl)c7cc(Cl)oc67)n5)CC3)n4C[C@@H]3CCO3)cc12 [Compound 352]
Result: N

----------
Observed pIC50 for GLP-1R (Homo sapiens, UniProt P43220), reported per entry below.
Scale: pIC50 equals -log10([C]), with [C] in mol/L.

Answered examples (10):
| COMPOUND | MEASUREMENT |
| --- | --- |
| Cc1n[nH]c2c(F)cc(NC(=O)c3ccc4c(c3)nc(CN3CCC(c5cccc(OCc6ccc(C#N)cc6F)n5)CC3)n4C[C@@H]3CCO3)cc12 | 5.85 |
| Cc1n[nH]c2c(C)cc(NC(=O)c3ccc4c(c3)nc(CN3CC=C(c5cccc6c5O[C@](C)(c5ccc(Cl)cn5)O6)CC3)n4CC3CCO3)cc12 (stereo partly drawn) | 5.83 |
| O=C(Nc1ccc2c(c1)nc(CN1CC=C(c3cccc(OCc4ccc(Cl)cc4F)n3)CC1)n2C[C@@H]1CCO1)c1ccc2[nH]c(=O)[nH]c2c1 | 5.70 |
| O=C(Nc1ccc2[nH]c(=O)[nH]c2c1)c1ccc2c(c1)nc(CN1CCC(c3cccc(OCc4ccc(Cl)cc4F)n3)CC1)n2C[C@@H]1CCO1 | 5.72 |
| CCn1cncc1Cn1c(CN2CC=C(c3cccc(OCc4ccc(Cl)cc4F)n3)CC2)nc2cc(NC(=O)c3cc(F)c4[nH]nc(C)c4c3)ccc21 | 6.98 |
| Cc1n[nH]c2c(F)cc(C(=O)Nc3ccc4c(c3)nc(Cc3cc(F)c(-c5cccc(OCc6ccc(Cl)cc6F)n5)cc3F)n4C3COC[C@H]3O)cc12 (stereo partly drawn) | 6.86 |
| Cc1n[nH]c2c(C)cc(C(=O)Nc3ccc4c(c3)nc(CN3CC=C(c5cccc(OCc6ccc(Cl)cc6F)n5)CC3)n4C[C@@H]3CCO3)cc12 | 6.78 |
| Cc1cc(NC(=O)c2ccc3c(c2)nc(CN2CCC(c4cccc(OCc5ccc(Cl)cc5F)n4)CC2)n3C[C@@H]2CCO2)cc2c1NC(=O)C21CC1 | 5.71 |
| O=C(Nc1ccc2[nH]nnc2c1)c1ccc2c(c1)nc(CN1CC=C(c3cccc(OCc4ccc(Cl)cc4F)n3)CC1)n2C[C@@H]1CCO1 | 5.58 |
| O=C(Nc1ccc2c(c1)nc(CN1CC=C(c3cccc(OCc4ccc(Cl)cn4)n3)CC1)n2C[C@@H]1CCO1)c1ccc2[nH]c(=O)[nH]c2c1 | 6.83 |

Q: Request: pIC50, test system GLP-1R (Homo sapiens, UniProt P43220), entry Cc1n[nH]c2c(F)cc(C(=O)Nc3ccc4c(c3)nc(Cc3cc(F)c(-c5cccc(OCc6ccc(Cl)cc6F)n5)cc3CO)n4C[C@@H]3CCO3)cc12
Result: 7.27

Q: Request: pIC50, test system GLP-1R (Homo sapiens, UniProt P43220), entry Cc1n[nH]c2c(C)cc(C(=O)Nc3ccc4c(c3)nc(CN3CCC(c5cccc6c5OC(C)(c5ccc(Cl)cc5F)O6)CC3)n4CC3CCO3)cc12 (stereo not drawn)
Result: 6.80

// data source = patent US20230271949A1
